- Test system: morningglory
- protocolSummary: Test B pre/postemergence morningglory
- Type: in vivo, Ipomoea hederacea
- experimentalContext: Preemergence, Rate 500 g/ha; scale of 0 to 10 where 0 is no effect and 10 is complete control
measurementKind: Plant response rating, Morningglory
// return just the number, without any unit appended

Below: 4 molecules and their reported Plant response rating, Morningglory.
molecule | targetOfAssay | Plant response rating, Morningglory
CC(C)N(C(=O)n1oc(=O)n(CC2CCCCO2)c1=O)c1ccc(F)cc1 (centres unmarked) [Compound 624] | morningglory | 0
COC(=O)C(c1ccccc1)n1c(=O)on(C(=O)N(c2ccc(F)cc2)C(C)C)c1=O (centres unmarked) [Compound 677] | morningglory | 0
CCC(C)n1c(=O)on(C(=O)N(c2ccc(F)cc2)C(C)C)c1=O (centres unmarked) [Compound 613] | morningglory | 10
CC(C)N(C(=O)n1oc(=O)n(CC2CC2)c1=O)c1ccc(F)cc1 [Compound 251] | morningglory | 4

Recorded Plant response rating, Morningglory for CC(C)N(C(=O)n1oc(=O)n(C(CCl)CCl)c1=O)c1ccc(F)cc1 [Compound 672] , please?
2

====

- Test system: wheat
- protocolSummary: Test B pre/postemergence wheat
- Type: in vivo, Triticum aestivum
- experimentalContext: Preemergence, Rate 125 g/ha; scale of 0 to 10 where 0 is no effect and 10 is complete control
Measured Plant response rating, Wheat of individual entries
Just the number, please.

Some compounds with known Plant response rating, Wheat results, for comparison:
compound | Plant response rating, Wheat
CCOC(=O)CC(C(=O)OCC)n1c(=O)on(C(=O)N(c2ccc(F)cc2F)C(C)C)c1=O (stereo not drawn) | 0
CC(C)N(C(=O)n1oc(=O)n(C(C)CCl)c1=O)c1ccc(F)cc1F (stereo not drawn) | 0
CC(C)N(C(=O)n1oc(=O)n(C(C)C2CCC2)c1=O)c1ccc(Cl)cc1 (stereo not drawn) | 0
C#CCn1c(=O)on(C(=O)N(c2ccc(F)cc2)C(C)C)c1=O | 0
CC(C)N(C(=O)n1oc(=O)n(CCC(=O)N(C)C)c1=O)c1ccccc1 | 0

From here, focus on the item given below.
Tell me the measured Plant response rating, Wheat of COCC(OC)n1c(=O)on(C(=O)N(c2ccc(Cl)cc2)C(C)C)c1=O (stereo not drawn) , please.
0

====

- Test system: blackgrass
- protocolSummary: Test B pre/postemergence blackgrass
- Format: in vivo, Alopecurus myosuroides
- experimentalContext: Preemergence, Rate 500 g/ha; scale of 0 to 10 where 0 is no effect and 10 is complete control
Please note: Plant response rating, Blackgrass exactly at 6 is label 0. Only values below 6 get label 1.

Does this compound meet the criterion Plant response rating, Blackgrass < 6? "CC(C)N(C(=O)n1oc(=O)n(CCCC#N)c1=O)c1ccc(F)cc1"
label 0

====

Listed here are compounds together with their documented Plant response rating, Wheat.
- Test system: wheat
- protocolSummary: Test B pre/postemergence wheat
- Format: in vivo, Triticum aestivum
- experimentalContext: Preemergence, Rate 500 g/ha; scale of 0 to 10 where 0 is no effect and 10 is complete control

compound | targetOfAssay | obsValue
CCC(C)n1c(=O)on(C(=O)N(c2ccc(F)cc2)C(C)C)c1=O (stereo not drawn) | wheat | 6
C=CCn1c(=O)on(C(=O)N(c2ccc(F)cc2)C(C)C(=O)OCC)c1=O (stereo not drawn) | wheat | 0
COC(=O)C(c1ccccc1)n1c(=O)on(C(=O)N(c2ccc(F)cc2)C(C)C)c1=O (stereo not drawn) | wheat | 0

Next, consider the following compound.
Test system wheat; read-out Plant response rating, Wheat; what value for "CC(C)N(C(=O)n1oc(=O)n(C(CCl)CCl)c1=O)c1ccc(F)cc1" ?
0
